Where do these numbers come from? They come from patent US20060079453A1.

# measuredOn: HLA-DR DRB1*1101 (DR11) (Homo sapiens, UniProt P01903+P01911, A100R/A169T/A87E/I96F/K41T/L162R/M171V/P40S/Q125H/Q178H/Q39Y/Q99D/R42S/S66Y/T262R/V115G/W38E)
# Sequence (P01903 26-254 limits assumed, other chains not shown): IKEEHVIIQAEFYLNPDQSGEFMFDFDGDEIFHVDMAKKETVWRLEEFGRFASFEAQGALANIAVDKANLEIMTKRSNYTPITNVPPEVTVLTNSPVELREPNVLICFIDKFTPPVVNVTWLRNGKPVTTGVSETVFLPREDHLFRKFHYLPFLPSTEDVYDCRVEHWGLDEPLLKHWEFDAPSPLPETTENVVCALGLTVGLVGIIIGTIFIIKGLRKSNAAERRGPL
# testDescription: biochemical
# Format: binding
# testContext: DRB1 *1101
pIC50: −log10 of the molar value.
So basically: pIC50 at 6 or higher? That is Condition met. Lower than 6? That is Condition not met.

# count of solved cases: 8
givenSmiles	labelClass
CC[C@H](C)[C@H](NC(=O)[C@H](Cc1ccccc1)NC(=O)[C@H](Cc1c[nH]c2ccccc12)NC(=O)CNC(=O)[C@H](Cc1ccccc1)NC(=O)[C@H](CC(C)C)NC(=O)[C@H](Cc1ccccc1)NC(=O)CNC(=O)[C@@H](N)CC(C)C)C(=O)N[C@@H](CCCCN)C(=O)N[C@@H](CO)C(=O)N[C@@H](CO)C(=O)N[C@@H](CC(N)=O)C(=O)N[C@@H](CCC(=O)O)C(=O)N[C@@H](C)C(=O)O	Condition not met
CC[C@H](C)[C@H](NC(=O)[C@H](CO)NC(=O)[C@H](CC(N)=O)NC(=O)[C@H](C)NC(=O)[C@H](CC(C)C)NC(=O)[C@H](CCC(=O)O)NC(=O)[C@H](Cc1ccccc1)NC(=O)[C@@H](NC(=O)[C@H](CCSC)NC(=O)CN)C(C)C)C(=O)N[C@H](C(=O)N[C@@H](CC(C)C)C(=O)N1CCC[C@H]1C(=O)N[C@@H](Cc1ccccc1)C(=O)N[C@@H](CC(=O)O)C(=O)O)C(C)C	Condition not met
CC[C@H](C)[C@H](NC(=O)[C@H](CC(C)C)NC(=O)[C@H](CCCCN)NC(=O)[C@H](CCCCN)NC(=O)[C@@H](N)Cc1ccc(O)cc1)C(=O)N[C@@H](CCSC)C(=O)N[C@@H](Cc1ccc(O)cc1)C(=O)N[C@@H](CO)C(=O)N[C@@H](C)C(=O)N[C@@H](Cc1c[nH]cn1)C(=O)N[C@@H](CC(=O)O)C(=O)N[C@H](C(=O)N[C@H](C(=O)N[C@H](C(=O)N[C@@H](CO)C(=O)O)C(C)C)[C@@H](C)O)[C@@H](C)O	Condition met
CC(C)C[C@H](NC(=O)[C@H](CO)NC(=O)[C@H](CC(C)C)NC(=O)[C@H](CO)NC(=O)[C@H](C)NC(=O)[C@H](C)NC(=O)[C@H](CCCNC(=N)N)NC(=O)[C@H](C)NC(=O)[C@H](CC(C)C)NC(=O)[C@H](CC(C)C)NC(=O)[C@H](CC(C)C)NC(=O)[C@@H]1CCCN1C(=O)[C@H](C)NC(=O)[C@H](C)N)C(=O)NCC(=O)O	Condition met
CC[C@H](C)[C@H](NC(=O)[C@H](Cc1c[nH]cn1)NC(=O)[C@H](CCSC)NC(=O)[C@H](CCCCN)NC(=O)[C@@H](NC(=O)[C@H](CCCCN)NC(=O)[C@H](CCC(N)=O)NC(=O)[C@@H](NC(=O)[C@H](CO)NC(=O)[C@H](Cc1ccccc1)NC(=O)[C@H](CC(N)=O)NC(=O)CNC(=O)[C@@H](N)[C@@H](C)O)[C@@H](C)O)C(C)C)C(=O)N[C@@H](Cc1c[nH]cn1)C(=O)N[C@@H](CO)C(=O)O	Condition not met
CC[C@H](C)[C@H](NC(=O)[C@@H](NC(=O)[C@H](Cc1c[nH]cn1)NC(=O)[C@@H](N)CCCNC(=N)N)C(C)C)C(=O)N[C@@H](Cc1ccc(O)cc1)C(=O)N[C@@H](C)C(=O)N1CCC[C@H]1C(=O)N[C@@H](CO)C(=O)N[C@@H](CO)C(=O)N[C@@H](Cc1c[nH]cn1)C(=O)N[C@@H](CC(N)=O)C(=O)N[C@@H](CCCCN)C(=O)N[C@@H](Cc1ccc(O)cc1)C(=O)N[C@@H](C)C(=O)NCC(=O)O	Condition not met
CC[C@H](C)[C@H](NC(=O)CNC(=O)[C@H](CCC(N)=O)NC(=O)[C@H](CC(C)C)NC(=O)[C@@H](NC(=O)CNC(=O)[C@H](CC(N)=O)NC(=O)[C@H](CS)NC(=O)[C@@H](NC(=O)[C@H](CC(C)C)NC(=O)[C@@H]1CCCN1C(=O)CNC(=O)CN)C(C)C)C(C)C)C(=O)N[C@H](C(=O)N[C@@H](CO)C(=O)O)[C@@H](C)O	Condition not met
CC[C@H](C)[C@H](NC(=O)[C@H](CO)NC(=O)[C@H](CO)NC(=O)[C@H](CC(=O)O)NC(=O)[C@H](C)NC(=O)[C@H](CC(N)=O)NC(=O)[C@@H](NC(=O)[C@H](Cc1ccc(O)cc1)NC(=O)[C@H](C)NC(=O)[C@@H](NC(=O)CNC(=O)[C@H](CCCNC(=N)N)NC(=O)[C@@H](N)CCC(=O)O)C(C)C)[C@@H](C)CC)C(=O)N[C@@H](CCC(=O)O)C(=O)NCC(=O)O	Condition not met

Problem: hey, is pIC50 for this one >= 6? CC[C@H](C)[C@H](NC(=O)[C@H](Cc1ccc(O)cc1)NC(=O)[C@@H]1CCCN1C(=O)[C@H](CC(=O)O)NC(=O)[C@H](CCC(=O)O)NC(=O)[C@H](CC(C)C)NC(=O)[C@@H](NC(=O)[C@H](C)NC(=O)[C@@H](N)CCC(=O)O)C(C)C)C(=O)N[C@@H](CC(C)C)C(=O)N[C@@H](CC(C)C)C(=O)N[C@H](C(=O)N[C@@H](CO)C(=O)N[C@@H](CO)C(=O)N[C@@H](CCCCN)C(=O)O)C(C)C
Result: Condition not met

Problem: hey, is pIC50 for this one >= 6? CC[C@H](C)[C@H](NC(=O)[C@@H]1CCCN1C(=O)[C@H](CC(=O)O)NC(=O)[C@@H](NC(=O)[C@@H]1CCCN1C(=O)[C@H](Cc1ccccc1)NC(=O)[C@@H](NC(=O)[C@H](CC(=O)O)NC(=O)[C@@H](NC(=O)[C@@H]1CCCN1C(=O)[C@H](CO)NC(=O)[C@@H](N)CCCNC(=N)N)[C@@H](C)CC)[C@@H](C)O)[C@@H](C)O)C(=O)N[C@@H](CCCCN)C(=O)N[C@@H](CCC(=O)O)C(=O)N[C@@H](CO)C(=O)O
Result: Condition not met

Problem: hey, is pIC50 for this one >= 6? CC[C@H](C)[C@H](NC(=O)CNC(=O)[C@H](CC(C)C)NC(=O)CNC(=O)[C@H](CCCCN)NC(=O)[C@@H](NC(=O)[C@@H](NC(=O)[C@H](Cc1ccccc1)NC(=O)[C@H](CS)NC(=O)[C@@H](NC(=O)[C@@H](N)CCC(N)=O)C(C)C)[C@@H](C)CC)[C@@H](C)O)C(=O)N[C@@H](CO)C(=O)N[C@@H](Cc1ccc(O)cc1)C(=O)NCC(=O)N[C@@H](CCCNC(=N)N)C(=O)O
Result: Condition met
